Source: ChEMBL document CHEMBL1764981

assay: Selectivity index, ratio of CC50 for human Huh5-2 cells to EC50 for Hepatitis C virus; format: toxicity, cell-based, Huh-5-2; conditions: read-out: Ratio CC50/EC50

Smiles Record	Limit Qualifier	selectivity ratio
CC(=O)OC[C@H]1O[C@@H](n2c(SCc3cc4cc(F)ccc4oc3=O)nc3cncnc32)[C@H](OC(C)=O)[C@@H]1OC(C)=O	=	1.2
CC(=O)OC[C@H]1O[C@@H](n2c(SCc3cc4cc(C)ccc4oc3=O)nc3cncnc32)[C@H](O)[C@@H]1O	=	3.5
CC(=O)OC[C@H]1O[C@@H](n2c(=S)n([C@@H]3O[C@H](COC(C)=O)[C@@H](OC(C)=O)[C@H]3OC(C)=O)c3ncncc32)[C@H](OC(C)=O)[C@@H]1OC(C)=O	>	1.1
CC(=O)OC[C@H]1O[C@@H](n2c(SCc3cc4ccccc4oc3=O)nc3cncnc32)[C@H](O)[C@@H]1O	<	0.98
CC1(C)O[C@@H]2[C@H](O1)[C@H](n1c(SCc3cc4cc(Br)ccc4oc3=O)nc3cncnc31)O[C@@H]2CO	=	3.6
O=c1oc2ccc(F)cc2cc1CSc1nc2cncnc2n1[C@@H]1O[C@H](CO)[C@@H](O)[C@H]1O	=	4.9
CC(=O)OC[C@H]1O[C@@H](n2c(SCc3cc4ccccc4oc3=O)nc3cncnc32)[C@H](OC(C)=O)[C@@H]1OC(C)=O	=	5.9
CC(=O)OC[C@H]1O[C@@H](n2c(SCc3cc4cc(Br)cc(Br)c4oc3=O)nc3cncnc32)[C@H](O)[C@@H]1O	=	1
O=c1oc2ccc(Cl)cc2cc1CSc1nc2cncnc2n1[C@@H]1O[C@H](CO)[C@@H](O)[C@H]1O	=	8.5
O=c1oc2ccccc2cc1CSc1nc2cncnc2n1[C@@H]1O[C@H](CO)[C@@H](O)[C@H]1O	=	9.1
Nc1ncnc2c1nc(SCc1cc3cc(Br)ccc3oc1=O)n2[C@@H]1O[C@H](CO)[C@@H](O)[C@H]1O	=	1.5
Nc1ncnc2c1nc(SCc1cc3cc(Br)cc(Br)c3oc1=O)n2[C@@H]1O[C@H](CO)[C@@H](O)[C@H]1O	=	1.4
CC(=O)OC[C@H]1O[C@@H](n2c(SCc3cc4cc(Br)ccc4oc3=O)nc3cncnc32)[C@H](O)[C@@H]1O	=	3.8
